- assay overview: Protein binding in cynomolgus monkey at 0.2 mg/kg, iv measured upto 72 hrs by LC-MS/MS analysis
- Type: ADME, organism-based, Macaca fascicularis
- test conditions: in vivo, read-out: PB (converted)
For each record, write down the corresponding fraction unbound at 72 h.
Give bare numbers.

compound smiles	meas value
COc1ccc(C[C@@H]2NC(=O)[C@H]([C@@H](C)O)NC(=O)[C@@H]3[C@@H]4CCN3C(=O)[C@@H]3Cc5cn(c6ccc(F)cc56)Cc5cn(nn5)-c5cc(cc(c5)CSCCC(=O)N[C@@H](C)C(=O)N[C@H](CNC(=O)CCOCCOCC[N+](C)(C)C)C(=O)N[C@@H](Cc5cccc(c5)C/C=C/CO4)C(=O)N3)CSCCNC(=O)[C@]3(C)CCCN3C2=O)cc1	0.256

Now consider the entry below.
Entry under review: COc1ccc(C[C@@H]2NC(=O)[C@H]([C@@H](C)O)NC(=O)[C@@H]3[C@@H]4CCN3C(=O)[C@@H]3Cc5cn(c6ccc(F)cc56)Cc5cn(nn5)-c5cc(cc(c5)CSCCC(=O)N[C@@H](CNC(=O)CCOCCOCC[N+](C)(C)C)C(=O)N[C@H](C)C(=O)N[C@@H](Cc5cccc(c5)C/C=C/CO4)C(=O)N3)CSCCNC(=O)[C@]3(C)CCCN3C2=O)cc1 . Reported fraction unbound at 72 h?
0.247

====

- measured target: Solute carrier organic anion transporter family member 1B1 (Homo sapiens, UniProt Q9Y6L6)
- Sequence (Q9Y6L6 whole entry): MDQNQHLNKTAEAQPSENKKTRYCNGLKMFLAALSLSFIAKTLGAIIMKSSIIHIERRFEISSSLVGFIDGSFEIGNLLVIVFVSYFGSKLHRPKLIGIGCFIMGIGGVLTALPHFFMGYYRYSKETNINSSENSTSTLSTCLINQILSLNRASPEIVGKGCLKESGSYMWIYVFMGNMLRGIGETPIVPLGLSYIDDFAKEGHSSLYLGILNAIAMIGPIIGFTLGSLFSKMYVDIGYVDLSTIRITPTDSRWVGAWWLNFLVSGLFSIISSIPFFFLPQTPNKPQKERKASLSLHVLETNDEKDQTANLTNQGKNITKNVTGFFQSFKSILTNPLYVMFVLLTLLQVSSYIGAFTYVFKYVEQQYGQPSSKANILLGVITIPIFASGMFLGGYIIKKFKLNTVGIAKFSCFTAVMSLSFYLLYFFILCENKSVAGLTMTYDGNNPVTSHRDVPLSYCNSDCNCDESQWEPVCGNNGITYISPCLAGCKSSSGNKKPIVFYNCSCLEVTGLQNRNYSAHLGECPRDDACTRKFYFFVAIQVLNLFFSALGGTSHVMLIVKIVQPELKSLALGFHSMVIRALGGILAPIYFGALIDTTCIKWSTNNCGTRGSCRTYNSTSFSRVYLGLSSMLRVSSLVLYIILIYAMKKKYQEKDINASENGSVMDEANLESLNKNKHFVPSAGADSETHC
- assay overview: Inhibition of OATP1B1 (unknown origin) expressed in HEK293 cells assessed as reduction in OATP 1B1-mediated [3H]-pitavastatin uptake preincubated for 30 mins followed by [3H]-pitavastatin addition and measured after 2 mins by liquid scintillation analysis
readout type: EC50 (nM)
Answers are plain numbers, in nM.

compound smiles	EC50 [nM]
COc1ccc(C[C@@H]2NC(=O)[C@H]([C@@H](C)O)NC(=O)[C@@H]3[C@@H]4CCN3C(=O)[C@@H]3Cc5cn(c6ccc(F)cc56)Cc5cn(nn5)-c5cc(cc(c5)CSCCC(=O)N[C@@H](CN)C(=O)N[C@H](C)C(=O)N[C@@H](Cc5cccc(c5)C/C=C/CO4)C(=O)N3)CSCCNC(=O)[C@]3(C)CCCN3C2=O)cc1	600
COc1ccc(C[C@@H]2NC(=O)[C@H]([C@@H](C)O)NC(=O)[C@@H]3[C@@H]4CCN3C(=O)[C@@H]3Cc5cn(c6ccc(F)cc56)Cc5cn(nn5)-c5cc(cc(c5)CSCCC(=O)N[C@@H](CNC(=O)CCOCCOCCN)C(=O)N[C@H](C)C(=O)N[C@@H](Cc5cccc(c5)C/C=C/CO4)C(=O)N3)CSCCNC(=O)[C@]3(C)CCCN3C2=O)cc1	6000
COc1ccc(C[C@@H]2NC(=O)[C@H]([C@@H](C)OC)NC(=O)[C@@H]3[C@@H]4CCN3C(=O)[C@H](Cc3c[nH]c5ccc(F)cc35)NC(=O)[C@H](Cc3cccc(c3)C/C=C/CO4)NC(=O)[C@@H](C)NC(=O)[C@H](C)NC(=O)CCSCc3cccc(c3)CSCCNC(=O)[C@]3(C)CCCN3C2=O)cc1	130

Now consider the entry below.
Lab note: need EC50 with Solute carrier organic anion transporter family member 1B1 (Homo sapiens, UniProt Q9Y6L6) for entry COc1ccc(C[C@@H]2NC(=O)[C@H]([C@@H](C)O)NC(=O)[C@@H]3[C@@H]4CCN3C(=O)[C@@H]3Cc5cn(c6ccc(F)cc56)Cc5cn(nn5)-c5cc(cc(c5)CSCCC(=O)N[C@@H](C)C(=O)N[C@H](CNC(=O)CCOCCOCC[N+](C)(C)C)C(=O)N[C@@H](Cc5cccc(c5)C/C=C/CO4)C(=O)N3)CSCCNC(=O)[C@]3(C)CCCN3C2=O)cc1 , please look it up.
2500

====

For each record, write down the corresponding pKi.
- measured target: Proprotein convertase subtilisin/kexin type 9 (Homo sapiens)
- assay overview: Inhibition of human PCSK9 using Alexa Fluor […] as substrate incubated for 2 hrs by FRET assay
pKi: −log10 of the molar value.

Sample answers from the record:
compound smiles	meas value
COc1ccc(C[C@@H]2NC(=O)[C@H]([C@@H](C)O)NC(=O)[C@@H]3[C@@H]4CCN3C(=O)[C@@H]3Cc5cn(c6ccc(F)cc56)Cc5cn(nn5)-c5cc(cc(c5)CSCCC(=O)N[C@@H](CN)C(=O)N[C@H](C)C(=O)N[C@@H](Cc5cccc(c5)C/C=C/CO4)C(=O)N3)CSCCNC(=O)[C@]3(C)CCCN3C2=O)cc1	> 9.89
COc1ccc(C[C@@H]2NC(=O)[C@H]([C@@H](C)O)NC(=O)[C@@H]3[C@@H]4CCN3C(=O)[C@@H]3Cc5cn(c6ccc(F)cc56)Cc5cn(nn5)-c5cc(cc(c5)CSCCC(=O)N[C@@H](C)C(=O)N[C@H](CNC(=O)CCOCCOCC[N+](C)(C)C)C(=O)N[C@@H](Cc5cccc(c5)C/C=C/CO4)C(=O)N3)CSCCNC(=O)[C@]3(C)CCCN3C2=O)cc1	> 9.89

Now consider the entry below.
Lab note: need pKi with Proprotein convertase subtilisin/kexin type 9 (Homo sapiens) for entry COc1ccc(C[C@@H]2NC(=O)[C@H]([C@@H](C)O)NC(=O)[C@@H]3[C@@H]4CCN3C(=O)[C@H](Cc3c[nH]c5ccc(F)cc35)NC(=O)[C@H](Cc3cccc(c3)C/C=C/CO4)NC(=O)[C@@H](C)NC(=O)[C@H](C)NC(=O)CCSCc3cccc(c3)CSCCNC(=O)[C@]3(C)CCCN3C2=O)cc1 , please look it up.
9.37

====

- assay overview: Bioavailability in Wistar Han rat at 5 mg/kg, id measured upto 24 hrs by LC-MS/MS analysis
- Type: ADME, organism-based
- test conditions: in vivo
readout type: bioavailability (%)
Give bare numbers, in %.

Entry under review: COc1ccc(C[C@@H]2NC(=O)[C@H]([C@@H](C)O)NC(=O)[C@@H]3[C@@H]4CCN3C(=O)[C@@H]3Cc5cn(c6ccc(F)cc56)Cc5cn(nn5)-c5cc(cc(c5)CSCCC(=O)N[C@@H](C)C(=O)N[C@H](CNC(=O)CCOCCOCC[N+](C)(C)C)C(=O)N[C@@H](Cc5cccc(c5)C/C=C/CO4)C(=O)N3)CSCCNC(=O)[C@]3(C)CCCN3C2=O)cc1 . Reported bioavailability?
1.4

====

- measured target: Proprotein convertase subtilisin/kexin type 9 (Homo sapiens, UniProt Q8NBP7)
- Sequence (Q8NBP7 31-152 limits assumed): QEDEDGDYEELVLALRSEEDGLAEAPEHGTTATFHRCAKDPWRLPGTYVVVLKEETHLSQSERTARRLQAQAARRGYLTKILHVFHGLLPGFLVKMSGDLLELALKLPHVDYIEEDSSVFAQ
- Sequence (Q8NBP7 153-692 limits assumed): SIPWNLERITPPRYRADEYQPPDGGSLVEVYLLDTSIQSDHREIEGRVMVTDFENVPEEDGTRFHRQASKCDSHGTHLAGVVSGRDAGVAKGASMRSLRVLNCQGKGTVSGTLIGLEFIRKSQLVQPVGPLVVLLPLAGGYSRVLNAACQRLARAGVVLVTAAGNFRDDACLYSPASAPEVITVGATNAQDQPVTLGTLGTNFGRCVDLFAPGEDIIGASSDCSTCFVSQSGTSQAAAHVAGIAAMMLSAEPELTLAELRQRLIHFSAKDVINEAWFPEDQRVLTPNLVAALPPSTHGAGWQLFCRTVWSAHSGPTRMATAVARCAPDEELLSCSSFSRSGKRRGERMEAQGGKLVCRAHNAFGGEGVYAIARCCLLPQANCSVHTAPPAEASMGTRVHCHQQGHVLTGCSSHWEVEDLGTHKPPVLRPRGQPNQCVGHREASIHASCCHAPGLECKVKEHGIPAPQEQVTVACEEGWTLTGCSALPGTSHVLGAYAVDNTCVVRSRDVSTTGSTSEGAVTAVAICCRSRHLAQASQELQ
- assay overview: Inhibition of human PCSK9 using Alexa Fluor […] as substrate incubated for 2 hrs by FRET assay
readout type: pKi
Numbers only, as −log10 of the molar value.

compound smiles	meas value
COc1ccc(C[C@@H]2NC(=O)[C@H]([C@H](C)OC)NC(=O)[C@@H]3[C@@H]4CCN3C(=O)[C@H](Cc3c[nH]c5ccc(F)cc35)NC(=O)[C@H](Cc3cccc(c3)C/C=C\CO4)NC(=O)[C@H](C)NC(=O)[C@H](CN)NC(=O)CCSCc3cccc(c3)CSCCNC(=O)[C@]3(C)CCCN3C2=O)cc1	8.36

Now consider the entry below.
Entry under review: COc1ccc(C[C@@H]2NC(=O)[C@H]([C@@H](C)O)NC(=O)[C@@H]3[C@@H]4CCN3C(=O)[C@H](Cc3c[nH]c5ccc(F)cc35)NC(=O)[C@H](Cc3cccc(c3)C/C=C\CO4)NC(=O)[C@@H](C)NC(=O)[C@H](C)NC(=O)CCSCc3cccc(c3)CSCCNC(=O)[C@]3(C)CCCN3C2=O)cc1 . Reported pKi?
8.33

====

- assay overview: Clearance in cynomolgus monkey at 0.2 mg/kg, iv measured upto 72 hrs by LC-MS/MS analysis
- Type: ADME, organism-based, Macaca fascicularis
- test conditions: in vivo
For each record, write down the corresponding clearance.
One number for each entry, in mL/min/kg.

compound smiles	readout type	meas value
COc1ccc(C[C@@H]2NC(=O)[C@H]([C@@H](C)O)NC(=O)[C@@H]3[C@@H]4CCN3C(=O)[C@@H]3Cc5cn(c6ccc(F)cc56)Cc5cn(nn5)-c5cc(cc(c5)CSCCC(=O)N[C@@H](CNC(=O)CCOCCOCC[N+](C)(C)C)C(=O)N[C@H](C)C(=O)N[C@@H](Cc5cccc(c5)C/C=C/CO4)C(=O)N3)CSCCNC(=O)[C@]3(C)CCCN3C2=O)cc1	clearance	1.4

Now consider the entry below.
Entry under review: COc1ccc(C[C@@H]2NC(=O)[C@H]([C@@H](C)O)NC(=O)[C@@H]3[C@@H]4CCN3C(=O)[C@@H]3Cc5cn(c6ccc(F)cc56)Cc5cn(nn5)-c5cc(cc(c5)CSCCC(=O)N[C@@H](C)C(=O)N[C@H](CNC(=O)CCOCCOCC[N+](C)(C)C)C(=O)N[C@@H](Cc5cccc(c5)C/C=C/CO4)C(=O)N3)CSCCNC(=O)[C@]3(C)CCCN3C2=O)cc1 . Reported clearance?
2.7

====

- assay overview: AUC(0 to infinity) in cynomolgus monkey at 1 mg/kg, po measured upto 72 hrs by LC-MS/MS analysis
- Format: ADME, organism-based, Macaca fascicularis
- Set-up: route oral, dose 1 mg/kg, time <=72
- test conditions: in vivo
readout type: AUC(0-inf) (µM·h)
Answers are plain numbers, in µM·h.

Entry under review: COc1ccc(C[C@@H]2NC(=O)[C@H]([C@@H](C)O)NC(=O)[C@@H]3[C@@H]4CCN3C(=O)[C@@H]3Cc5cn(c6ccc(F)cc56)Cc5cn(nn5)-c5cc(cc(c5)CSCCC(=O)N[C@@H](CNC(=O)CCOCCOCC[N+](C)(C)C)C(=O)N[C@H](C)C(=O)N[C@@H](Cc5cccc(c5)C/C=C/CO4)C(=O)N3)CSCCNC(=O)[C@]3(C)CCCN3C2=O)cc1 . Reported AUC(0-inf)?
0.216
